Where do these numbers come from? They come from patent US20250325534A1.

# Test system: Pyrenophora teres
# TEST DETAILS: Pyrenophora teres / barley / leaf disc preventative (net blotch)
# Type: in vivo
# CONDITION DESCRIPTION: foliar, inoculated 2 days after application
MEASURED METRIC: pest or weed control at 200 ppm

According to the records, this compound Cc1ccc2c(c1)C(C)(c1cnn(C)c1)CN(C(=O)c1cc(-c3ccc(F)cc3F)on1)C2C (stereo not shown) displays pest or weed control at 200 ppm of ≥ 80%

According to the records, this compound Cc1c(C2CN(C(=O)c3cc(-c4ccc(F)cc4)no3)Cc3ccccc32)cnn1C (stereo not shown) displays pest or weed control at 200 ppm of ≥ 80%

According to the records, this compound Cc1nn(C)c(C)c1C1CN(C(=O)c2cc(-c3ccc(F)cc3F)on2)Cc2ccccc21 (stereo not shown) displays pest or weed control at 200 ppm of ≥ 80%

According to the records, this compound Cn1cc(C2CN(C(=O)c3cc(-c4ccccc4)on3)Cc3ccc(C(F)(F)F)cc32)cn1 (stereo not shown) displays pest or weed control at 200 ppm of ≥ 80%

According to the records, this compound CC1c2ccccc2C(c2cnn(C)c2)CN1C(=O)c1cc(-c2ccc(F)cc2F)on1 (stereo not shown) displays pest or weed control at 200 ppm of ≥ 80%

According to the records, this compound COc1ccc2c(c1)CN(C(=O)c1cc(-c3ccc(F)cc3F)on1)CC2c1cnn(C)c1 (stereo not shown) displays pest or weed control at 200 ppm of ≥ 80%

According to the records, this compound Cn1cc(C2CN(C(=O)c3cc(-c4ccc(F)cc4F)on3)Cc3ccccc32)cn1 (single isomer, unassigned) [Compound P-143] displays pest or weed control at 200 ppm of ≥ 80%

----------
# Tested on: Mycosphaerella graminicola
# TEST DETAILS: Mycosphaerella graminicola (Septoria tritici) / liquid culture (Septoria blotch)
# Type: cell-based
# CONDITION DESCRIPTION: Zymoseptoria tritici, 96 h, photometrically 4-5 days after application, read-out: control of Mycosphaerella graminicola
# Procedure: Example B19: Mycosphaerella graminicola (Septoria tritici)/Liquid Culture (Septoria Blotch) Conidia of the fungus from cryogenic storage are directly mixed into a nutrient broth (potato dextrose broth). After placing a DMSO solution of test compound into a microtiter plate (96-well format), the nutrient broth containing the fungal spores is added. The test plates are incubated at 24° C. and the inhibition of growth is determined photometrically 4-5 days after application.
MEASURED METRIC: inhibition of growth at 20 ppm

According to the records, this compound Cn1cc(C2CN(C(=O)c3cc(C(C)(C)C)no3)Cc3ccccc32)cn1 (centres unmarked) [Compound P-83] displays inhibition of growth at 20 ppm of ≥ 80%

According to the records, this compound Cn1cc(C2CN(C(=O)c3cc(-c4ccccc4)on3)Cc3cc(F)ccc32)cn1 (centres unmarked) [Compound P-138] displays inhibition of growth at 20 ppm of ≥ 80%

According to the records, this compound Cn1cc(C2CN(C(=O)c3coc(-c4ccccc4)c3)Cc3ccccc32)cn1 (centres unmarked) [Compound P-147] displays inhibition of growth at 20 ppm of ≥ 80%

According to the records, this compound Cc1c(C2CN(C(=O)c3noc(-c4ccc(F)cc4F)n3)Cc3ccccc32)cnn1C (centres unmarked) [Compound P-228] displays inhibition of growth at 20 ppm of ≥ 80%

According to the records, this compound Cn1cc(C2CN(C(=O)c3cc(-c4cccs4)on3)Cc3ccccc32)cn1 (centres unmarked) [Compound P-206] displays inhibition of growth at 20 ppm of ≥ 80%

According to the records, this compound COc1cc(F)ccc1-c1cc(C(=O)N2Cc3ccccc3C(c3cnn(C)c3C)C2)no1 (centres unmarked) [Compound P-46] displays inhibition of growth at 20 ppm of ≥ 80%

According to the records, this compound Cn1cc(C2CN(C(=O)c3cc(-c4ccc(F)cc4F)on3)Cc3cc(F)ccc32)cn1 (centres unmarked) [Compound P-134] displays inhibition of growth at 20 ppm of ≥ 80%

According to the records, this compound Cc1cc(C(=O)N2Cc3ccccc3C(c3cnn(C)c3)C2)no1 (centres unmarked) [Compound P-194] displays inhibition of growth at 20 ppm of ≥ 80%

----------
# System: Mycosphaerella arachidis
# TEST DETAILS: Mycosphaerella arachidis (Cercospora arachidicola) / liquid culture (early leaf spot)
# Format: cell-based
# CONDITION DESCRIPTION: 96 h, photometrically 4-5 days after application, read-out: control of Mycosphaerella arachidis
MEASURED METRIC: inhibition of growth at 20 ppm

According to the records, this compound Cc1c(C2c3ccccc3CN(C(=O)c3cc(-c4ccc(F)cc4F)on3)C2(C)C)cnn1C (stereo not shown) displays inhibition of growth at 20 ppm of ≥ 80%

According to the records, this compound COc1ccc2c(c1)C(C)N(C(=O)c1cc(-c3ccc(F)cc3F)on1)CC2(C)c1cnn(C)c1 (stereo not shown) displays inhibition of growth at 20 ppm of ≥ 80%

According to the records, this compound CC1c2ccc(OCC(F)F)cc2C(C)(c2cnn(C)c2)CN1C(=O)c1cc(-c2ccc(F)cc2F)on1 (stereo not shown) displays inhibition of growth at 20 ppm of ≥ 80%

According to the records, this compound Cn1cc(C2CN(C(=O)c3cc(-c4ccccc4)on3)Cc3ccccc32)cn1 (stereo not shown) [Compound P-205] displays inhibition of growth at 20 ppm of ≥ 80%
